Target: T1, PTPRG, endogenous in H929 multiple myeloma cells (human, UniProt P23470 20-1445)
T1 construct: Native protein on H929 cells (flow cytometry, siRNA knockdown) and in H929 lysates (IP/MS); also called phosphatase receptor type γ
T1 sequence (P23470 20-1445 limits assumed): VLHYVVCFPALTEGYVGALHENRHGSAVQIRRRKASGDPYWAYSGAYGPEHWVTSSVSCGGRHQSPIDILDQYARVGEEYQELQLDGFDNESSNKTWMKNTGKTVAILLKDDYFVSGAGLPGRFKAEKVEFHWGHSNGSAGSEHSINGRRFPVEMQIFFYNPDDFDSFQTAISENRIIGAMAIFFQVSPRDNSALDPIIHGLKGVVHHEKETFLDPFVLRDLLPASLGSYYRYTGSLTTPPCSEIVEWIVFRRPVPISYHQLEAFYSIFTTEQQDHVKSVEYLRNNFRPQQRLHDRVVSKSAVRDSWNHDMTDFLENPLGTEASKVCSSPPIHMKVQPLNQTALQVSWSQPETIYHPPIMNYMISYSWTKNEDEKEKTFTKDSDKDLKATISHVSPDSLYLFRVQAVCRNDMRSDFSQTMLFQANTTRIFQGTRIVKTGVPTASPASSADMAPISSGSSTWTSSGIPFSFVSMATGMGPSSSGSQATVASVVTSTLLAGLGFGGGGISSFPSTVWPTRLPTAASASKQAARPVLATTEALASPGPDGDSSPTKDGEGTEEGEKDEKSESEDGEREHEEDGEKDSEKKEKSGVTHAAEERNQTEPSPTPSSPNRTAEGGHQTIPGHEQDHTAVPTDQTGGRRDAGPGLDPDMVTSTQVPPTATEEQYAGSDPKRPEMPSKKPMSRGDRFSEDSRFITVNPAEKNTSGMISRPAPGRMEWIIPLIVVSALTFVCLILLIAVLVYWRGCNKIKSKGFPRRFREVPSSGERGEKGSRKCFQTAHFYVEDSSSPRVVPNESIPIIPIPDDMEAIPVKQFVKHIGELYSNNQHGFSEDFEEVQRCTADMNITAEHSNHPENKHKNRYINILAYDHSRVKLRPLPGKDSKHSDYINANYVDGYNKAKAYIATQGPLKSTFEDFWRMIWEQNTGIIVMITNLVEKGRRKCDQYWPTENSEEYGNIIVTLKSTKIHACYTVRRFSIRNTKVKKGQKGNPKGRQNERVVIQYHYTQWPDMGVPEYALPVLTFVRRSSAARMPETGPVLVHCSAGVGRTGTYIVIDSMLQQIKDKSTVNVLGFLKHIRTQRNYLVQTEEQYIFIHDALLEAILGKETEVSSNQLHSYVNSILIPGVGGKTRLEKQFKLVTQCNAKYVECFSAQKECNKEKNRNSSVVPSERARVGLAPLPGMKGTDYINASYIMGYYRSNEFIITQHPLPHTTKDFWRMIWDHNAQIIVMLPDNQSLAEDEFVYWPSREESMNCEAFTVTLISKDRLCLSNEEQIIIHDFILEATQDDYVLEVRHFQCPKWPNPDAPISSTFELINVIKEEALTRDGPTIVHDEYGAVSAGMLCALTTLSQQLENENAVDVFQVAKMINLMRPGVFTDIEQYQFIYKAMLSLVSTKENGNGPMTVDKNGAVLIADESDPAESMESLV
Assay: flow cytometry, H929 + PTPRG siRNA (target knocked down); None 490
quantity: mAb binding (MFI)
Please respond with just the number, no unit label.

Guide cases for mAb binding (MFI), answers given:
HW-42 chimeric rabbit-human IgG1 LA/LA/PG (antibody, V domains shown, Fc-silenced (L234A/L235A/P329G) IgG1, lambda; Alexa Fluor 647-labeled in single-step flow cytometry; Cluster C-1) VH: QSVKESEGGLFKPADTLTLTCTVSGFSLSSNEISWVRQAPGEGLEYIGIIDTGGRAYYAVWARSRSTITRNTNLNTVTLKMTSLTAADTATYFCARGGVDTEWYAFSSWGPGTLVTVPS VL: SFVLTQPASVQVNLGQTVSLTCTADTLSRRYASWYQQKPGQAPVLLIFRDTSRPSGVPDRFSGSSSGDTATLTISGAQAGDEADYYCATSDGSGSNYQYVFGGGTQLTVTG : 649
HW-1 chimeric rabbit-human IgG1 LA/LA/PG (antibody, V domains shown, Fc-silenced (L234A/L235A/P329G) IgG1, lambda; Alexa Fluor 647-labeled in single-step flow cytometry; Prototype of cluster C-1) VH: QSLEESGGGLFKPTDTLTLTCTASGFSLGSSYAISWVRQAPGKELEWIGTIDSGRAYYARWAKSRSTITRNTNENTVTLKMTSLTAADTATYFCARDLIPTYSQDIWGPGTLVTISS VL: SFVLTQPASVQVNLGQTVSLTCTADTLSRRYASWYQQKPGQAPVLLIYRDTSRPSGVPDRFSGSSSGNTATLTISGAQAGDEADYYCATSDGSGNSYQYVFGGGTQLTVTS : 1140
HW-17 chimeric rabbit-human IgG1 LA/LA/PG (antibody, V domains shown, Fc-silenced (L234A/L235A/P329G) IgG1, lambda; Alexa Fluor 647-labeled in single-step flow cytometry; Cluster C-1) VH: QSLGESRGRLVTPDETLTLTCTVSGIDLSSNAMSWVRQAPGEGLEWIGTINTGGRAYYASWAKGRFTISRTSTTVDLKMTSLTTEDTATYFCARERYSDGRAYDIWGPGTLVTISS VL: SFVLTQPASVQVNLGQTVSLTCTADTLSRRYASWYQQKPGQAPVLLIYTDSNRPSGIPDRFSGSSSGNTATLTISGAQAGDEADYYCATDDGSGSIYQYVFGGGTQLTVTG : 1160

Notebook: HW-25 chimeric rabbit-human IgG1 LA/LA/PG (antibody, V domains shown, Fc-silenced (L234A/L235A/P329G) IgG1, lambda; Alexa Fluor 647-labeled in single-step flow cytometry; Cluster C-1) VH: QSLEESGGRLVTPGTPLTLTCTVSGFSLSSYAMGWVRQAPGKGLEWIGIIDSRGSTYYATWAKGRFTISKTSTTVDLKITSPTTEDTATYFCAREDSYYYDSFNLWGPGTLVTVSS VL: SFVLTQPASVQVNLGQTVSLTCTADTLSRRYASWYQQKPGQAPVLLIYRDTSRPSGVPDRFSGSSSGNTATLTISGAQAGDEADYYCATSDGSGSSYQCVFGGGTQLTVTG , mAb binding (MFI) read as 839

Notebook: HW-70 chimeric rabbit-human IgG1 LA/LA/PG (antibody, V domains shown, Fc-silenced (L234A/L235A/P329G) IgG1, lambda; Alexa Fluor 647-labeled in single-step flow cytometry; Cluster C-1) VH: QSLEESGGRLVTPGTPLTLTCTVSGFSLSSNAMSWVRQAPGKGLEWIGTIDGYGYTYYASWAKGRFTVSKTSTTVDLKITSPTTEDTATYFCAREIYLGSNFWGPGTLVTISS VL: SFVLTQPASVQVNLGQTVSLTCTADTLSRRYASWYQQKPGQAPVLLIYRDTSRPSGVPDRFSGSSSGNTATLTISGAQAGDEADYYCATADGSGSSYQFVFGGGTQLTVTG , mAb binding (MFI) read as 840
